Listed here: items and their measured MTT TD50.
# System: HEp-2 cells
# ASSAY PROCEDURE: Cytotoxicity assay (MTT) in parallel with the antiviral assay
# Assay type: cell-based
# ASSAY SETUP: uninfected HEp-2 cells, 4 days incubation, MTT viability

INSERT INTO measurements (smiles_notation, target, result) VALUES
  ('c1ccc(N(Cc2cccn2-c2nccs2)Cc2cccn2-c2nccs2)cc1', 'HEp-2 cells', '>32 µM'),
  ('Cc1c([C@@H](C)N(Cc2cccn2-c2nccs2)Cc2cccn2-c2nccs2)cnn1-c1cccc(F)c1', 'HEp-2 cells', '>32 µM'),
  ('FC(F)(F)Cn1cc(CN(Cc2cccn2-c2nccs2)Cc2cccn2-c2nccs2)cn1', 'HEp-2 cells', '49 µM');

Q: Recorded MTT TD50 for Cc1c([C@H](C)N(Cc2cccn2-c2nccs2)Cc2cccn2-c2nccs2)cnn1-c1cccc(F)c1 with HEp-2 cells, please?
Result: >32 µM
